molecular target: C-CBL (46-435) (Homo sapiens, UniProt P22681); construct: N-terminal biotinylated WT CBL-B (36-427) and C-CBL (46-435) were captured on a streptavidin (SA) coated sensor chip; test: Surface Plasmon Resonance (SPR) assay, binding affinity and kinetics, C-CBL; settings: SPR at 10° C., biotinylated C-CBL (46-435) on streptavidin chip; geometric mean; read-out: C-CBL SPR Kd (nM) GMean
Sequence (P22681 46-435): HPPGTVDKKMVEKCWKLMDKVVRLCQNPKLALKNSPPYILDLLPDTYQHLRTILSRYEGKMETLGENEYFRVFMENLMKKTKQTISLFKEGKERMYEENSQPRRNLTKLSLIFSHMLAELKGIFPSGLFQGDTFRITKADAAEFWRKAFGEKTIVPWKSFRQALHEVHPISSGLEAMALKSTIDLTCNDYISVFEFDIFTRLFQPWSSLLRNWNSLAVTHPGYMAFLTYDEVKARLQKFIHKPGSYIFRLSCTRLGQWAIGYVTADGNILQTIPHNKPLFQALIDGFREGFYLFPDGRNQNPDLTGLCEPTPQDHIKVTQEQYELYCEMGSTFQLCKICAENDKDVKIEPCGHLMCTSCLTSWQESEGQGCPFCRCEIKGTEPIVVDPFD
Recorded Kd by entry
State the value with its unit after it.

CNc1nc2[nH]nc(-c3cccc([C@H](c4nncn4C)C4CCC4)c3)c2cc1C(F)(F)F [E2]; 1730 nM

# get_value(readout='Kd', item= Cn1cnnc1CC1(c2cccc(-c3n[nH]c4c(CN5CC(F)(F)C5)nc(C(F)(F)F)cc34)c2)COC1 [Example C69] )
208 nM

What do you get for CC(N[C@H]1CCOC1)c1nc(C(F)(F)F)cc2c(-c3cccc(C4(Cc5nncn5C)COC4)c3)n[nH]c12 (single isomer, unassigned) [Example C81] ?
56.5 nM

* * *

molecular target: WT CBL-B (36-427) (Homo sapiens, UniProt Q13191); construct: N-terminal biotinylated WT CBL-B (36-427) and C-CBL (46-435) were captured on a streptavidin (SA) coated sensor chip; assay: Surface Plasmon Resonance (SPR) assay, binding affinity and kinetics, CBL-B; details: SPR at 10° C., biotinylated WT CBL-B (36-427) on streptavidin chip; geometric mean; read-out: CBL-B SPR Kd (nM) GMean
Sequence (Q13191 36-427): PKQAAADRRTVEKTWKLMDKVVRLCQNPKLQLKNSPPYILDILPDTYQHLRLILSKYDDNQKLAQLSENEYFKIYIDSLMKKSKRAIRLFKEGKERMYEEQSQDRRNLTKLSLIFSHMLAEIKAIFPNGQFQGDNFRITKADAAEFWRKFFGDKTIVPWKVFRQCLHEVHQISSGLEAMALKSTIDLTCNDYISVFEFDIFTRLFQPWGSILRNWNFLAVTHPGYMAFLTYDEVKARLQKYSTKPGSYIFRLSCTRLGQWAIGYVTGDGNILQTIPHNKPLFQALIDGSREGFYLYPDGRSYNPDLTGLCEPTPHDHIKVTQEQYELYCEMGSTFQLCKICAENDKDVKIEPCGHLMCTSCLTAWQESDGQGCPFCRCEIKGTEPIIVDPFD
measurement-label: Kd (nM)
Report the figure in nM without appending any unit label.

Illustrative cases are given below, each with its answer.
CC(C)NC(C)c1nc(C(F)(F)F)cc2c(-c3cccc(C4(Cc5nncn5C)COC4)c3)n[nH]c12 (single isomer, unassigned) [Example C79]; 3.2
C[C@H]1CN(Cc2nc(C(F)(F)F)cc3c(-c4cccc([C@H](c5nncn5C)C5CCC5)c4)n[nH]c23)CCO1 [Example C6]; 4.4
Cn1cnnc1[C@@H](c1cccc(-c2n[nH]c3c(CN4CCNC(=O)C4)nc(C(F)(F)F)cc23)c1)C1CCC1 [Example C112]; 3
C[C@H](c1nc(C(F)(F)F)cc2c(-c3cccc(C4(Cc5nncn5C)COC4)c3)n[nH]c12)N1C[C@@H](F)[C@H](F)C1 (single isomer, unassigned) [Example C26]; 13.2

# context switch: different molecule, same Kd
# get_value(readout='Kd', item= C[C@H](c1nc(C(F)(F)F)cc2c(-c3cccc(C4(Cc5nncn5C)COC4)c3)n[nH]c12)N1CCNCC1 (single isomer, unassigned) [Example D54] )
8.2

* * *

target: WT CBL-B (36-427) (Homo sapiens); construct: N-terminal biotinylated WT CBL-B (36-427) and C-CBL (46-435) were captured on a streptavidin (SA) coated sensor chip; assay: Surface Plasmon Resonance (SPR) assay, binding affinity and kinetics, CBL-B; settings: SPR at 10° C., biotinylated WT CBL-B (36-427) on streptavidin chip; geometric mean; read-out: CBL-B SPR Kd (nM) GMean
measurement-label: Kd (nM)
Report the figure in nM without appending any unit label.

Illustrative cases are given below, each with its answer.
Cn1cnnc1[C@@H](c1cccc(-c2n[nH]c3c(CN4CC[C@H](O)C4)nc(C(F)(F)F)cc23)c1)C1CCC1; 2.5
Cn1cnnc1[C@@H](c1cccc(-c2n[nH]c3c(CO)nc(C(F)(F)F)cc23)c1)C1CCC1; 12.7
C[C@H](c1nc(C(F)(F)F)cc2c(-c3cccc([C@H](c4nncn4C)C4CCC4)c3)n[nH]c12)N1CCNC(=O)C1 (single isomer, unassigned); 11

# get_value(readout='Kd', item= "C[C@H]1CCCN(Cc2nc(C(F)(F)F)cc3c(-c4cccc(C5(Cc6nncn6C)COC5)c4)n[nH]c23)C1" )
3

What do you get for C[C@H](NC1CCCC1)c1nc(C(F)(F)F)cc2c(-c3cccc([C@H](c4nncn4C)C4CCC4)c3)n[nH]c12 (single isomer, unassigned) ?
11.5

What do you get for CN[C@@H](C)c1nc(C(F)(F)F)cc2c(-c3cccc(C4(Cc5nncn5C)COC4)c3)n[nH]c12 (single isomer, unassigned) ?
7.9
